For each entry below, report its solubility value.
assay: Solubility test (visual dissolution in physiological saline; saturated solubility); assay type: physicochemical; details: saline or isotonic, thermodynamic from solid, 1.2 mg taken, dissolution confirmed visually

Incoming: Indicate its recorded solubility; the compound in question is CNC(=O)[C@@](C)(C(=O)NOCOP(=O)(O)O)N(C)C(=O)c1ccc(C#Cc2ccc([C@H](O)CO)cc2)cc1 [Example 2]
Outgoing: > 100 mg/mL

Incoming: In one line, give reported solubility of the entry CNC(=O)[C@@](C)(C(=O)NOP(=O)(O)O)N(C)C(=O)c1ccc(C#Cc2ccc([C@H](O)CO)cc2)cc1 [Example 1] .
Outgoing: > 100 mg/mL
